Hello, the source for this data is patent US9802960B2, in case you need it.

- study_system: Human VPS34 (Homo sapiens (Human), UniProt Q8NEB9)
- Sequence (Q8NEB9 whole entry): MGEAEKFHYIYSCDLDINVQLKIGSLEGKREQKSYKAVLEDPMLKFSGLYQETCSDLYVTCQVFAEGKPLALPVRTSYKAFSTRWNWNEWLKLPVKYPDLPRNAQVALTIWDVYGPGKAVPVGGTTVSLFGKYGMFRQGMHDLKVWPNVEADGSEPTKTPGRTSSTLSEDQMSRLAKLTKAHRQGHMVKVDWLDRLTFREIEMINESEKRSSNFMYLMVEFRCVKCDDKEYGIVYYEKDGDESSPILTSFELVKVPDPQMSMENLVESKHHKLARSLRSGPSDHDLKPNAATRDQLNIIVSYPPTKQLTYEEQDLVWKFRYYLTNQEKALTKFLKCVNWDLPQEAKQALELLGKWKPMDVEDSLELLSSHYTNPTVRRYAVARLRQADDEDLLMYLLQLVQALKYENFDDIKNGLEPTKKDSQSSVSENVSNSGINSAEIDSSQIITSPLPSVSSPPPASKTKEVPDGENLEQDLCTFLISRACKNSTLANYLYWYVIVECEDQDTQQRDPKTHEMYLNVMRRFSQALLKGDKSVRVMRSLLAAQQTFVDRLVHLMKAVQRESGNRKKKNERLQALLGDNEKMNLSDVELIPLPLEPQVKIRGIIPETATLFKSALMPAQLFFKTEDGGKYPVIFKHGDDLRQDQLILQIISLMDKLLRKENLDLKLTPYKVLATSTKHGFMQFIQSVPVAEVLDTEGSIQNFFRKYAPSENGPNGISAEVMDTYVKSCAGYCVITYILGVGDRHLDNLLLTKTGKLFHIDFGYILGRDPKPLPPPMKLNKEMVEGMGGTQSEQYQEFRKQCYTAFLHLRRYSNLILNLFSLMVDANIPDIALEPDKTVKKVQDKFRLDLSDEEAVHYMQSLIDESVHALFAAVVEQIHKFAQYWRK
- assay_summary: Human VPS34 enzyme assay (Adapta TR-FRET)
- Format: biochemical
- measurement_context: compound concentration 1.11 μM; read-out: Percent Inhibition
Items are presented alongside their recorded inhibition at 1.11 µM.

Below, 5 compounds whose answers are already recorded.
INSERT INTO results (smiles_repr, observed_result) VALUES
  ('CC(=O)Nc1cc(-c2cnc(N)c(C(=O)N3CCC3)c2)ccn1', '> 99%'),
  ('CC(=O)Nc1cc(-c2cnc(C)c(NS(=O)(=O)c3ccc(F)cc3F)c2)cc[n+]1[O-]', '92%'),
  ('CC(=O)Nc1cc(-c2cncc(S(=O)(=O)NC3CC3)c2)ccn1', '> 99%'),
  ('Cc1nccc(Nc2cc(-c3cnc(C)c(C(=O)O)c3)ccn2)n1', '96%'),
  ('CC(=O)Nc1cc(-c2cnc(N)c(S(=O)(=O)C(C)C)c2)ccn1', '> 99%');

For reference, reported inhibition at 1.11 µM for CC(=O)Nc1cc(-c2cnc(N)c(N(C)S(C)(=O)=O)c2)ccn1 stands at > 99%

For reference, reported inhibition at 1.11 µM for CC(=O)Nc1cc(-c2cnc(C)c(NS(=O)(=O)c3cccc(C(C)(C)C)c3)c2)ccn1 stands at > 99%

For reference, reported inhibition at 1.11 µM for CC(=O)Nc1cc(-c2cnc(Cl)c(NS(=O)(=O)c3ccc(F)cc3Cl)c2C)ccn1 stands at > 99%

For reference, reported inhibition at 1.11 µM for Cc1nccc(Nc2cc(-c3cc(NC(=O)N4CC(F)(F)C4)c4ccnn4c3)ccn2)n1 stands at 98%

For reference, reported inhibition at 1.11 µM for COc1nccc(Nc2cc(-c3cncc(C(=O)N(C)C45CC(C4)C5)c3)ccn2)n1 stands at > 99%

For reference, reported inhibition at 1.11 µM for CC(=O)Nc1cc(-c2cncc(C(C)=O)c2)ccn1 stands at 62%
